The reported numbers originate from patent EP4722195A1.

Answer each item with its documented mRNA concentration.
Experiment: Encapsulation rate of lipid nanoparticles (Ribogreen)
Assay type: physicochemical
Conditions: Table 1; Fluc mRNA-loaded lipid nanoparticles; TxT/DSPC/chol/PEG-DMG=50/15/35/1.5 (mol%)
The figure you give is taken to be in µg/µL; do not add the unit.

Consider CCCCCCCCN(CCCCCCCC)C(=O)CCCC(=O)OCC(COC(=O)CCCC(=O)N(CCCCCCCC)CCCCCCCC)(COC(=O)CCCC(=O)N(CCCCCCCC)CCCCCCCC)NC(=O)CCN1CCCCC1 [TxT-5-5A16] . Its measured mRNA concentration is 0.020

Consider CCCCCCC(CCCC)CNC(=O)CCCC(=O)OCC(COC(=O)CCCC(=O)NCC(CCCC)CCCCCC)(COC(=O)CCCC(=O)NCC(CCCC)CCCCCC)NC(=O)CCN1CCCCC1 (stereo not drawn) [TxT-5-5A12β] . Its measured mRNA concentration is 0.024

Consider CCCCCCCN(CCCCCCC)C(=O)CCCC(=O)OCC(COC(=O)CCCC(=O)N(CCCCCCC)CCCCCCC)(COC(=O)CCCC(=O)N(CCCCCCC)CCCCCCC)NC(=O)CCN1CCCCC1 [TxT-5-5A14] . Its measured mRNA concentration is 0.025

Consider CCCCCN(CCCCC)C(=O)CCCC(=O)OCC(COC(=O)CCCC(=O)N(CCCCC)CCCCC)(COC(=O)CCCC(=O)N(CCCCC)CCCCC)NC(=O)CCN1CCCCC1 [TxT-5-5A10] . Its measured mRNA concentration is 0.012

Consider CCCCC(CC)CNC(=O)CCCC(=O)OCC(COC(=O)CCCC(=O)NCC(CC)CCCC)(COC(=O)CCCC(=O)NCC(CC)CCCC)NC(=O)CCN1CCCCC1 (stereo not drawn) [TxT-5-5A8β] . Its measured mRNA concentration is 0.009

Consider CCCCCCN(CCCCCC)C(=O)CCCC(=O)OCC(COC(=O)CCCC(=O)N(CCCCCC)CCCCCC)(COC(=O)CCCC(=O)N(CCCCCC)CCCCCC)NC(=O)CCN1CCCCC1 [TxT-5-5A12] . Its measured mRNA concentration is 0.019

Consider CCCCN(CCCC)C(=O)CCCC(=O)OCC(COC(=O)CCCC(=O)N(CCCC)CCCC)(COC(=O)CCCC(=O)N(CCCC)CCCC)NC(=O)CCN1CCCCC1 [TxT-5-5A8] . Its measured mRNA concentration is 0.005
